System: 874868-142-R-J2-PDC complex spheroids, growth % test/control
assay-comment: Anticancer human tumor 874868-142-R-J2-PDC patient-derived head and neck squamous carcinoma cell line growth inhibition [CLK]
assay-conditions: second compound 3.16 µM; first compound 0.00316 µM; active compounds read low
metric: viability, T/C (%)
Report the value in % with no unit label.

Form field viability, T/C for item CCc1c2c(nc3ccc(O)cc13)-c1cc3c(c(=O)n1C2)COC(=O)[C@]3(O)CC + CN1CCN(c2cc(C(=O)Nc3cc4cc(-c5cnn(C)c5)ccc4cn3)ccn2)CC1 on 874868-142-R-J2-PDC complex spheroids, growth % test/control: 0.18

Form field viability, T/C for item COc1c(OCCCN2CCOCC2)ccc2c3n(c(=NC(=O)c4cnc(N)nc4)nc12)CCN3 + CN1CCN(c2cc(C(=O)Nc3cc4cc(-c5cnn(C)c5)ccc4cn3)ccn2)CC1 on 874868-142-R-J2-PDC complex spheroids, growth % test/control: 0.17

Form field viability, T/C for item Cn1ncnc1[C@H]1c2n[nH]c(=O)c3cc(F)cc(c23)N[C@@H]1c1ccc(F)cc1 + CNC(=O)c1ccc(Nc2nc(OC3CCCC3)c3c(-c4ccc5nc(C)oc5c4)c[nH]c3n2)c(OC)c1 on 874868-142-R-J2-PDC complex spheroids, growth % test/control: 39.2

---

System: 874868-142-R-J2-PDC complex spheroids, growth % test/control
assay-comment: Anticancer human tumor 874868-142-R-J2-PDC cell line growth inhibition [CLK];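 further: spheroids exposed to the compounds for 7 days; 100% = DMSO vehicle control viability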
assay-conditions: second compound 0.1 µM; first compound 0.3 µM; active compounds read low
Give measured viability, T/C for each item. Keep answers brief.
Report the value in % with no unit label.

Form field viability, T/C for item CC(C)CC(NC(=O)C(Cc1ccccc1)NC(=O)c1cnccn1)B(O)O (stereo unspecified) + CN1CCN(c2cc(C(=O)Nc3cc4cc(-c5cnn(C)c5)ccc4cn3)ccn2)CC1 on 874868-142-R-J2-PDC complex spheroids, growth % test/control: 0.34

Form field viability, T/C for item NC(=O)C(=Cn1cnc(-c2cc(C(F)(F)F)cc(C(F)(F)F)c2)n1)c1cncnc1 + CNC(=O)c1ccc(Nc2nc(OC3CCCC3)c3c(-c4ccc5nc(C)oc5c4)c[nH]c3n2)c(OC)c1 on 874868-142-R-J2-PDC complex spheroids, growth % test/control: 4.57

Form field viability, T/C for item NC(=O)C(=Cn1cnc(-c2cc(C(F)(F)F)cc(C(F)(F)F)c2)n1)c1cncnc1 + CN1CCN(c2cc(C(=O)Nc3cc4cc(-c5cnn(C)c5)ccc4cn3)ccn2)CC1 on 874868-142-R-J2-PDC complex spheroids, growth % test/control: 3.61

Form field viability, T/C for item C=CC(=O)Nc1cc(Nc2nccc(-c3cn(C)c4ccccc34)n2)c(OC)cc1N(C)CCN(C)C + CN1CCN(c2cc(C(=O)Nc3cc4cc(-c5cnn(C)c5)ccc4cn3)ccn2)CC1 on 874868-142-R-J2-PDC complex spheroids, growth % test/control: 22

Form field viability, T/C for item C=CC(=O)Nc1cc(Nc2nccc(-c3cn(C)c4ccccc34)n2)c(OC)cc1N(C)CCN(C)C + CNC(=O)c1ccc(Nc2nc(OC3CCCC3)c3c(-c4ccc5nc(C)oc5c4)c[nH]c3n2)c(OC)c1 on 874868-142-R-J2-PDC complex spheroids, growth % test/control: 19.8

Form field viability, T/C for item CC(C)CC(NC(=O)C(Cc1ccccc1)NC(=O)c1cnccn1)B(O)O (stereo unspecified) + CNC(=O)c1ccc(Nc2nc(OC3CCCC3)c3c(-c4ccc5nc(C)oc5c4)c[nH]c3n2)c(OC)c1 on 874868-142-R-J2-PDC complex spheroids, growth % test/control: 4.13

---

Give measured viability, T/C for each item. Keep answers brief.
Tested on: 874868-142-R-J2-PDC complex spheroids, growth % test/control
assay-comment: Anticancer human tumor 874868-142-R-J2-PDC cell line growth inhibition [CLK];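 further: spheroids exposed to the compounds for 7 days; 100% = DMSO vehicle control viability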
assay-conditions: second compound 1 µM; first compound 1 µM; active compounds read low
Source text: A high-throughput screen of multi-cell type tumor spheroids was designed to identify active combinations of […] and targeted small molecules. Complex spheroids include a stromal component modeled by human endothelial cells (HUVEC) and fibroblasts modeled by human mesenchymal stem cells (MSCs). […] Compounds. […] If the clinical Cmax for an agent had not been determined, the highest concentration tested was 10 microM. […]
Report the value in % with no unit label.

Form field viability, T/C for item COC1C=CCC(C)C(C)S(=O)(=O)NC(=O)c2ccc3c(c2)N(CC2CCC21)CC1(CCCc2cc(Cl)ccc21)CO3 (stereo not given) + CNC(=O)c1ccc(Nc2nc(OC3CCCC3)c3c(-c4ccc5nc(C)oc5c4)c[nH]c3n2)c(OC)c1 on 874868-142-R-J2-PDC complex spheroids, growth % test/control: 18.6

Form field viability, T/C for item Nc1ccccc1NC(=O)c1ccc(CNC(=O)OCc2cccnc2)cc1 + CNC(=O)c1ccc(Nc2nc(OC3CCCC3)c3c(-c4ccc5nc(C)oc5c4)c[nH]c3n2)c(OC)c1 on 874868-142-R-J2-PDC complex spheroids, growth % test/control: 66.9

Form field viability, T/C for item CCc1c2c(nc3ccc(O)cc13)-c1cc3c(c(=O)n1C2)COC(=O)[C@]3(O)CC + CN1CCN(c2cc(C(=O)Nc3cc4cc(-c5cnn(C)c5)ccc4cn3)ccn2)CC1 on 874868-142-R-J2-PDC complex spheroids, growth % test/control: 0.11

Form field viability, T/C for item COC1C=CCC(C)C(C)S(=O)(=O)NC(=O)c2ccc3c(c2)N(CC2CCC21)CC1(CCCc2cc(Cl)ccc21)CO3 (stereo not given) + CN1CCN(c2cc(C(=O)Nc3cc4cc(-c5cnn(C)c5)ccc4cn3)ccn2)CC1 on 874868-142-R-J2-PDC complex spheroids, growth % test/control: 0.2

Form field viability, T/C for item Nc1ccccc1NC(=O)c1ccc(CNC(=O)OCc2cccnc2)cc1 + CN1CCN(c2cc(C(=O)Nc3cc4cc(-c5cnn(C)c5)ccc4cn3)ccn2)CC1 on 874868-142-R-J2-PDC complex spheroids, growth % test/control: 0.17

---

Test system: 874868-142-R-J2-PDC complex spheroids, growth % test/control
assay-comment: Anticancer human tumor 874868-142-R-J2-PDC cell line growth inhibition [CLK]; active = viability on the fitted dose curve at most 10% of control; inactive = the rest;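 further: spheroids exposed to the compounds for 7 days; 100% = DMSO vehicle control viability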
assay-conditions: second compound 1 µM; first compound 0.000949 µM
Respond only with the outcome that fits, drawn from t = active, f = inactive

Query: Would you mind telling me which call this test gave CC(C)CC(NC(=O)C(Cc1ccccc1)NC(=O)c1cnccn1)B(O)O (centres undefined) + CN1CCN(c2cc(C(=O)Nc3cc4cc(-c5cnn(C)c5)ccc4cn3)ccn2)CC1 ?
Reply: t

Query: Would you mind telling me which call this test gave C=CC(=O)Nc1cc(Nc2nccc(-c3cn(C)c4ccccc34)n2)c(OC)cc1N(C)CCN(C)C + CN1CCN(c2cc(C(=O)Nc3cc4cc(-c5cnn(C)c5)ccc4cn3)ccn2)CC1 ?
Reply: t

Query: Would you mind telling me which call this test gave CC(C)CC(NC(=O)C(Cc1ccccc1)NC(=O)c1cnccn1)B(O)O (centres undefined) + CNC(=O)c1ccc(Nc2nc(OC3CCCC3)c3c(-c4ccc5nc(C)oc5c4)c[nH]c3n2)c(OC)c1 ?
Reply: f

Query: Would you mind telling me which call this test gave C=CC(=O)Nc1cc(Nc2nccc(-c3cn(C)c4ccccc34)n2)c(OC)cc1N(C)CCN(C)C + CNC(=O)c1ccc(Nc2nc(OC3CCCC3)c3c(-c4ccc5nc(C)oc5c4)c[nH]c3n2)c(OC)c1 ?
Reply: f

---

System: 874868-142-R-J2-PDC complex spheroids, growth % test/control
assay-comment: Anticancer human tumor 874868-142-R-J2-PDC cell line growth inhibition [CLK]; active means viability on the fitted dose curve at most 10% of control; inactive means the rest;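 further: spheroids exposed to the compounds for 7 days; 100% = DMSO vehicle control viability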
assay-conditions: second compound 0.1 µM; first compound 1 µM
Respond only with the outcome that fits, drawn from active, inactive

Query: Would you mind telling me which call this test gave C#Cc1c(F)ccc2cc(O)cc(-c3ncc4c(N5CC6CCC(C5)N6)nc(OCC56CCCN5CC(F)C6)nc4c3F)c12 (stereo not given) + CNC(=O)c1ccc(Nc2nc(OC3CCCC3)c3c(-c4ccc5nc(C)oc5c4)c[nH]c3n2)c(OC)c1 ?
Reply: inactive

Query: Would you mind telling me which call this test gave CCc1c2c(nc3ccc(O)cc13)-c1cc3c(c(=O)n1C2)COC(=O)[C@]3(O)CC + CN1CCN(c2cc(C(=O)Nc3cc4cc(-c5cnn(C)c5)ccc4cn3)ccn2)CC1 ?
Reply: active

Query: Would you mind telling me which call this test gave C=CC(=O)N1CCN(c2nc(=O)n(-c3c(C)ccnc3C(C)C)c3nc(-c4c(O)cccc4F)c(F)cc23)C(C)C1 (stereo not given) + CN1CCN(c2cc(C(=O)Nc3cc4cc(-c5cnn(C)c5)ccc4cn3)ccn2)CC1 ?
Reply: inactive

Query: Would you mind telling me which call this test gave COc1cccc2c1C(=O)c1c(O)c3c(c(O)c1C2=O)CC(O)(C(=O)CO)CC3OC1CC(N)C(O)C(C)O1 (stereo not given) + CN1CCN(c2cc(C(=O)Nc3cc4cc(-c5cnn(C)c5)ccc4cn3)ccn2)CC1 ?
Reply: active

Query: Would you mind telling me which call this test gave CC(CO)NC(=O)c1cc(-c2ccc(Cl)cc2)nn(-c2cnn(C)c2)c1=O (stereo not given) + CNC(=O)c1ccc(Nc2nc(OC3CCCC3)c3c(-c4ccc5nc(C)oc5c4)c[nH]c3n2)c(OC)c1 ?
Reply: inactive
